procedure summary: Phase 1 drug-drug interaction study: plasma PK of GLPG1205
Format: in vivo, human
assay setup: male, human, plasma, oral; day 13, GLPG1205 100 mg once a day, n = 14, arithmetic mean (CV%)
endpoint name: Cmax (ng/mL)
# output: bare number, implied unit ng/mL

Could you share which Cmax value was measured for O=c1nc(OC[C@@H]2COCCO2)cc2n1CCc1cc(C#CC3CC3)ccc1-2 [GLPG1205] ?
5010

###

tested system: CYP1A2 (Homo sapiens, UniProt P05177)
Sequence (P05177 whole entry): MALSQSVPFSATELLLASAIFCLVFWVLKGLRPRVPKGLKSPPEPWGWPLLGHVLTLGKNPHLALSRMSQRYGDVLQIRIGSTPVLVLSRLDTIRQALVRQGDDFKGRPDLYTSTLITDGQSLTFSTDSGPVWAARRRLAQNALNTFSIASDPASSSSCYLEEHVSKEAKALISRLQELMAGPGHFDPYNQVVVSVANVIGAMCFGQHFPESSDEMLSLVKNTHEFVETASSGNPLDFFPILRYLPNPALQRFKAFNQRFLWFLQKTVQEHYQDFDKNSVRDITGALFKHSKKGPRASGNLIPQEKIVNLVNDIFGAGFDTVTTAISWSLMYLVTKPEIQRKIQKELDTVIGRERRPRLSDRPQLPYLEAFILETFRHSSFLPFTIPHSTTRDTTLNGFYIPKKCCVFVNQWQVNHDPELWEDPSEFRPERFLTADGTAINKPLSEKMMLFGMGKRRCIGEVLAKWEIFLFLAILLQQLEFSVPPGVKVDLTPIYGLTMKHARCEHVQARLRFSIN
procedure summary: clinical
assay setup: male, plasma, oral, t1/2, λz, Placebo + caffeine, n = 13, arithmetic mean (CV%)
endpoint name: half-life (h)
Unit h implied. Number only.

Form field - read-out: half-life; system: CYP1A2 (Homo sapiens, UniProt P05177); submitted item: Cn1c(=O)c2c(ncn2C)n(C)c1=O [Caffeine, caffeine]
5.73

The values you see were collected from paper PMC8453848.
